Consider the following compounds and their measured Growth Rate readings.
System: Fibroblast
Test Name: Incucyte cell viability with human fibroblast; also: unitless GR value; below 1 slowed growth and below 0 cell loss
Format: toxicity, cell-based
Conditions Used: 6 h, 10 µM, compound concentration 10 uM, replicate number 1

# Compound, Growth Rate
rows = [
    ("O=C(Nc1ccc(Oc2ccc(Cl)cc2)c(Cl)c1)c1cc(I)cc(I)c1O [RAFOXANIDE]", -0.56),
    ("O=C(N[C@H]1CCCCC/C=C\\C2C[C@@]2(C(=O)O)NC(=O)[C@@H]2C[C@@H](Oc3ccncc3)CN2C1=O)OC1CCCC1 (some centres undefined)", 0.23),
    ("COc1cc(F)ccc1-c1ncnc(Nc2cccc(C[S@](C)(=N)=O)c2)n1", -0.11),
    ("CSc1nc2c(c(=O)n(C)c(=O)n2C)n1C", 0.03),
    ("O=C(NCC1(N2CCN(c3ccccc3)CC2)CCOCC1)c1cccnc1Sc1ccccc1", 0.02),
    ("Cn1c(=O)n(CCCO)c(=O)c2c1nc(Oc1cccc(OC(F)(F)F)c1)n2Cc1ccc(Cl)cc1", -0.36),
    ("O=C(N[C@H](Cc1ccccc1)C(=O)O)c1cccc(OCc2cccnc2)c1.O=CO", 0.68),
    ("COc1ccc(OC(=O)N(CC(=O)O)Cc2ccc(OCCc3nc(-c4ccccc4)oc3C)cc2)cc1", 0.85),
    ("Nc1ncnc2c1c(COc1cccc(Cl)c1)nn2C1CCOCC1", 0.82),
]
